target_or_test_system: Serotonin 2 (5-HT2) receptor (Rattus norvegicus, UniProt P30994+P08909+P14842)
assay_remarks: In vitro inhibitory activity against [3H]ketanserin binding to 5-hydroxytryptamine 2 receptor
Format: protein assay
Doc: threshold 4 nM (exclusive). Items with IC50 beneath it return YES; others return NO.

Problem: Please check: IC50 for `Cl.Nc1ccc([N+](=O)[O-])cc1C(=O)NCCCCN1CCN(c2nsc3ccccc23)CC1` , strictly under 4 nM or not?
Solution: YES

Problem: Is it true that IC50 reported for `CCc1cc(Cl)c(O)c(C(=O)NCCCCN2CCN(c3nsc4ccccc34)CC2)c1OC.Cl` is less than 4 nM?
Solution: NO

Problem: Input `COc1c(Br)ccc(O)c1C(=O)NCCCCN1CCN(c2nsc3ccccc23)CC1.Cl` ; condition: IC50 strictly below 4 nM. Does it hold?
Solution: NO

Problem: Consider the compound `Cl.Nc1cc(C(F)(F)F)ccc1C(=O)NCCCCN1CCN(c2nsc3ccccc23)CC1` . Is its IC50 strictly less than 4 nM?
Solution: YES

Problem: IC50 strictly < 4 nM for this compound? `Cl.Nc1cc(F)ccc1C(=O)NCCCCN1CCN(c2nsc3ccccc23)CC1`
Solution: YES

Problem: Given `Cl.O=C(NCCCCN1CCN(c2nsc3ccccc23)CC1)c1ccccc1[N+](=O)[O-]` , is recorded IC50 strictly lower than 4 nM?
Solution: YES
